Data provenance is PubChem BioAssay.

# SYSTEM: Follistatin (Homo sapiens)
# PROTOCOL_NOTES: follistatin binders on small-molecule microarrays, primary screen, biochemical, small-molecule microarray, 635/667 nm fluorescence (AID 1132)
# CONDITION_CONTEXT: FST binding, 635 nm fluorescence, higher = more signal
Could you label it satisfied if measured composite z-score is 1 or higher, and not satisfied otherwise?

Given the entry C=C(CCCC)/C(=C/C[C@@H](OC(C)=O)c1ccc(OCCO)cc1)c1cc(C(=O)OC)ccc1OC , answer whether its composite z-score meets or surpasses 1.
not satisfied

Would you mind doing C=CCNC(=O)[C@@H]1[C@H]2C(=O)O[C@H](c3ccccc3)[C@H](c3ccccc3)N2[C@H](c2ccc(OCCO)cc2)[C@@]12C(=O)Nc1ccc(C#CCNC(N)=O)cc12 as well?
not satisfied

Another molecule to look at: CC[C@H]1C2=C3C(CC[C@H]4C(OCc5ccc(F)cc5C(F)(F)F)OC[C@](C)([C@@H]34)N(C(=O)OC(C)(C)C)C2)C(COC(C)=O)C1COC(C)=O (stereo partly specified)
not satisfied

Next up: COCCOC(=O)N1C(=O)[C@@]2(c3cc(C#CCC(C(=O)OC)C(=O)OC)ccc31)[C@H](c1ccc(O)cc1)N1[C@H](c3ccccc3)[C@H](c3ccccc3)OC(=O)[C@H]1[C@@H]2C(=O)N1CCc2cc(OC)c(OC)cc2C1
satisfied

Now this one: C=C(COC)C(=O)CC[C@@H](OC(=O)c1ccccc1-c1ccccc1C(=O)O)c1ccccc1OCCO
satisfied

# iterate: CC[C@@H](O[Si](C#C[Si](C(C)C)(C(C)C)C(C)C)(C(C)C)C(C)C)c1cn(Cc2cccc(Cl)c2)nn1
not satisfied
